The entries below come with measured Ki values attached.
System name: Rho kinase 1 (ROCK-I) (Homo sapiens, UniProt Q13464)
Sequence (Q13464 whole entry): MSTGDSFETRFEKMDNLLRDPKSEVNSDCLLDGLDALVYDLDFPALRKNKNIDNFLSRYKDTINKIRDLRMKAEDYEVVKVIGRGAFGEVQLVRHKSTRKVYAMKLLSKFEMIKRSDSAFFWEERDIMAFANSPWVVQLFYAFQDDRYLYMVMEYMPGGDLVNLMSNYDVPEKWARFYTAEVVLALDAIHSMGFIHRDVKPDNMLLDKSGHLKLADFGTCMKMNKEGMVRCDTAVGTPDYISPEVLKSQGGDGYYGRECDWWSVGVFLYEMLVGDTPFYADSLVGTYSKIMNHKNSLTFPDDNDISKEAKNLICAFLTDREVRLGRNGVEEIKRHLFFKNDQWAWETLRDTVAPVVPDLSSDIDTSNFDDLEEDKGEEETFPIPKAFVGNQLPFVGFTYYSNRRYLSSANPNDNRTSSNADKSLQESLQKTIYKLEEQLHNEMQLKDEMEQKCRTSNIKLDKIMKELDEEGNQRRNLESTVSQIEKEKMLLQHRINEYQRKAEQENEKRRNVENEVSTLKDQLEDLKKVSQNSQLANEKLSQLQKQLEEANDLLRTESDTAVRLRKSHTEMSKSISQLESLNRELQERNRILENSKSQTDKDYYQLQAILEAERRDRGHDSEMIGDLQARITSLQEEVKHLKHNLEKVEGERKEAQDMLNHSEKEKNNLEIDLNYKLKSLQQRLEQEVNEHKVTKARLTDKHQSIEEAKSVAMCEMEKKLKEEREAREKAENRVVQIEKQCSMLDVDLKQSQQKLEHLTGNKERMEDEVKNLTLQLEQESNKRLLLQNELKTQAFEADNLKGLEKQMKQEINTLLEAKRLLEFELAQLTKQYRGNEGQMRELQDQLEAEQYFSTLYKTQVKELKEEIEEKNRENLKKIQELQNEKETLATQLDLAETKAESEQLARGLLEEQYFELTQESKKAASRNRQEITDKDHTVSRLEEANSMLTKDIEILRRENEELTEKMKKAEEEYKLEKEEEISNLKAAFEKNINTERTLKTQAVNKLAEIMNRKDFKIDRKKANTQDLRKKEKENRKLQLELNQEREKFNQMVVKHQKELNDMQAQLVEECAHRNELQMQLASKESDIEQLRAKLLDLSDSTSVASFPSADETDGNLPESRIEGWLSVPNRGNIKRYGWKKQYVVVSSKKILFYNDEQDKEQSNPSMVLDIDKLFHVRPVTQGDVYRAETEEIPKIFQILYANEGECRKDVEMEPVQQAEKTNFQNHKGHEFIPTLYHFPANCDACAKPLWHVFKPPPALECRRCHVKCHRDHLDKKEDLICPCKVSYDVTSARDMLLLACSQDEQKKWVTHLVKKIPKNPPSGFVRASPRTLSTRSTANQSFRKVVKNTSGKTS
Test description: In vitro Rho kinase inhibitory activity assay (ADP-Glo), Rho kinase 1
Assay type: biochemical
Experimental context: 10 μM ATP, 25° C., expressed as range of activity

Here is how some compounds turned out for Ki.
Compound: N[C@H](Cc1cc(F)c(Oc2ccnc3[nH]ccc23)c(F)c1)C(=O)NC1CCCCC1
System name: Rho kinase 1 (ROCK-I) (Homo sapiens, UniProt Q13464)
Property label: Ki
Assay result: 3 to 30 nM
//
Compound: N[C@@H](Cc1ccc(Oc2ccnc3[nH]cc(CO)c23)c(F)c1)C(=O)NC1CCCCC1
System name: Rho kinase 1 (ROCK-I) (Homo sapiens, UniProt Q13464)
Property label: Ki
Assay result: < 3 nM
//
Compound: Cc1c[nH]c2nccc(Oc3ccc(CC(N)C(=O)NCCc4ccncc4)cc3F)c12 (single isomer, unassigned) [Example 57B]
System name: Rho kinase 1 (ROCK-I) (Homo sapiens, UniProt Q13464)
Property label: Ki
Assay result: < 3 nM
//
Compound: Cc1ccc(CN2CCN(C(=O)C(N)Cc3ccc(Oc4ccnc5[nH]cc(C)c45)c(F)c3)CC2)cc1 (stereo not shown)
System name: Rho kinase 1 (ROCK-I) (Homo sapiens, UniProt Q13464)
Property label: Ki
Assay result: < 3 nM
//
Compound: Cc1noc(C2CCN(C(=O)[C@@H](N)Cc3ccc(Oc4ccnc5[nH]cc(C)c45)c(F)c3)C2)n1 (single isomer, unassigned)
System name: Rho kinase 1 (ROCK-I) (Homo sapiens, UniProt Q13464)
Property label: Ki
Assay result: < 3 nM
//
Compound: Cc1c[nH]c2nccc(Oc3ccc(CC(N)C(=O)N4CCN(Cc5ccc6c(c5)OCO6)CC4)cc3F)c12 (stereo not shown)
System name: Rho kinase 1 (ROCK-I) (Homo sapiens, UniProt Q13464)
Property label: Ki
Assay result: < 3 nM

From here, focus on the item given below.
Value wanted: Ki (Rho kinase 1 (ROCK-I) (Homo sapiens, UniProt Q13464)) of entry `Cc1c[nH]c2ncnc(Oc3ccc(C[C@H](N)C(=O)NC4CCOCC4)cc3F)c12` 3 to 30 nM
